# system name: Ubiquitin carboxyl-terminal hydrolase 7 (Homo sapiens, UniProt Q93009)
# Sequence (Q93009 whole entry): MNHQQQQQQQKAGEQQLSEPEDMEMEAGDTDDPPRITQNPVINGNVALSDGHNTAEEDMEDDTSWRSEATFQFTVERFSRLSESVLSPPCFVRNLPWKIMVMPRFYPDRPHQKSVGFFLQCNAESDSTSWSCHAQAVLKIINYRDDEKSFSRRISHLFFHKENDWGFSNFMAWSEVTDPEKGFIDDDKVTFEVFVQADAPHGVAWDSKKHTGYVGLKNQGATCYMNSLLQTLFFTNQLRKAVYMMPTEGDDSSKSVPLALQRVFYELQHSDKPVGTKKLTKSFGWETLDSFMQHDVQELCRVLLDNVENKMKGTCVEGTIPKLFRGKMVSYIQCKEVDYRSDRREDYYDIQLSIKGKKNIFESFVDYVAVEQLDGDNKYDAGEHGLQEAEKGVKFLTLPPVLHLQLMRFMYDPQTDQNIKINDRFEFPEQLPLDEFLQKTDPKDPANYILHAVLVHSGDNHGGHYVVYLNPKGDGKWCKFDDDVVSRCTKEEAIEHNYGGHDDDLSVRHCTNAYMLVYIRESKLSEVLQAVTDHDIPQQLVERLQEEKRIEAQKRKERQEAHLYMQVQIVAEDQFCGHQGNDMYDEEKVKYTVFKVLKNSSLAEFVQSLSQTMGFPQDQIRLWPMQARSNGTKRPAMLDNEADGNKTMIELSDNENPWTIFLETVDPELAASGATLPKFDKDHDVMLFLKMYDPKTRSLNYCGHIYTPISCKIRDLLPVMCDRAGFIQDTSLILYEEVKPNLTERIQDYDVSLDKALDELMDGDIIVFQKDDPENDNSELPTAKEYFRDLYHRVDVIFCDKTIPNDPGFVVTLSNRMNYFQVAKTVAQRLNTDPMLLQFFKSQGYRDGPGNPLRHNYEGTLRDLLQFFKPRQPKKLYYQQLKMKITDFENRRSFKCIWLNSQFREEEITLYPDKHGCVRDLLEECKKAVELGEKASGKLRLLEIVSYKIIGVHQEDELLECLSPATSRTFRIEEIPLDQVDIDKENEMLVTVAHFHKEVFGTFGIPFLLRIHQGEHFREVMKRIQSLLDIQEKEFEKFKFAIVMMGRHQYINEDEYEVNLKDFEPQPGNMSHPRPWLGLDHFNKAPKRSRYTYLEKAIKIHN
# assay overview: Inhibition of USP7 in human U2OS using Ub-TAMRA substrate by Ub-Rhodamine fluorescent intensity assay
metric: pIC50
Numbers only, as −log10 of the molar value.

Give the reported pIC50 for C#Cc1ccc(CNC(=O)c2cc(C(=O)CCl)cn2C)cc1 (system: Ubiquitin carboxyl-terminal hydrolase 7 (Homo sapiens, UniProt Q93009)).
4.36

---

# Test system: HCT-116
# assay overview: Cytotoxicity in human HCT116 cells assessed as reduction in cell viability incubated for 72 hrs by FMCA analysis
# Format: functional, cell-based
# particulars: HCT-116, 72 h
Give pEC50 for every item shown.
Give bare numbers, as −log10 of the molar value.

C=CC(=O)N1C/C(=C\c2ccc([N+](=O)[O-])cc2)C(=O)/C(=C/c2ccc([N+](=O)[O-])cc2)C1; 5.98

Please report the recorded pEC50 for C=CC(=O)N1CC/C(=C\c2ccc(F)c([N+](=O)[O-])c2)C(=O)/C(=C/c2ccc(F)c([N+](=O)[O-])c2)C1 .
6.24

Data origin: ChEMBL document CHEMBL4354818
